- assay.overview: yeast display, Sf9 membrane polyspecificity reagent, FACS + sequencing; frameworks hold sequencing errors

[
  {
    "residue.sequence": "QVQLVESGGGLVQAGGSLRLSCAASGRIFIYNAMGWSRQAPGIERELVARIRDRGDSTNYADSVKGRFTISRDNAKNTVYLQMNSLKPEDTAVYYCAAQPWLRYYYWGQGTQVTVSS",
    "polyreactivity (PSR sort gate)": "low polyreactivity"
  },
  {
    "residue.sequence": "QVQLVESGGGLVQAGGSLRLSCAASGRTSYTNAMGWYRQAPGKERELVAAINYSGGSTYYADSVKGRFTISRDNAKNTVYLQMNSLKPEDIAVYYCAAERYYWYTEMGYWGQGTQGTVSS",
    "polyreactivity (PSR sort gate)": "high polyreactivity"
  },
  {
    "residue.sequence": "QVQLVESGGGLVQAGGSLRLSCAASGIIFRYYAMGWYRQAPGKERELVAAISGRGGSTYYADSVKGRFTISRDNAKNTVYLQMNSLKPEDTAVYYCAIYVSWPLYYYWGQGTQVTVSS",
    "polyreactivity (PSR sort gate)": "low polyreactivity"
  },
  {
    "residue.sequence": "QVQLVESGGGLVQAGGSLRLSCAASGSIFVRYTMGWYRQAPGKERELVAGISSRGGSTYYADSVKGRFTISRDNAKNTVYLQMNSLKPEDTAVYYCAATYFRRVVPGYNYWGQGTQVTVSS",
    "polyreactivity (PSR sort gate)": "high polyreactivity"
  },
  {
    "residue.sequence": "QVQLVESGGGLVQAGGSLRLSCAASGITFDYYAMGWYRQAPGKERELVAAISGGDSTNYADSVKGRFTISRDNEKNTVYLQMNSLKPEDTAVYYCNVQYSGLYWSYRIDFDYWGQGTQVTVSS",
    "polyreactivity (PSR sort gate)": "high polyreactivity"
  },
  {
    "residue.sequence": "QVQLVESGGGLVQAGGSLRLSCAASGITFKTYTMGWYRQAPGKERELVAAITRSGAGTYYADSVKGRFTISRDNAKNTVDLQMNSLKPEDTAVYYCAARVRWGYRYGYWGQGTQVTVSS",
    "polyreactivity (PSR sort gate)": "high polyreactivity"
  },
  {
    "residue.sequence": "QVQLVESGGGLVQAGGSLRLSCAASGFTFYYNAMGWYRQAPGKERELVAAMSGRGGSTHYADSVKGRFTISRDNAKNTVYLQMNSLKPEDTAVYYCNKVVRGSPEFDYWGQGTQVTVSS",
    "polyreactivity (PSR sort gate)": "high polyreactivity"
  },
  {
    "residue.sequence": "QVLLVESGGGLVQAGGSLRLSCAASGRILYHYAMGWYRQAPGKERELVAAITRGGGTNYADSVKGRFTISRDNAKNTVYLQMNSLKPEDTAVYYCNADRFIVTRSRRGDYWGQGTQVTVSS",
    "polyreactivity (PSR sort gate)": "low polyreactivity"
  },
  {
    "residue.sequence": "QVQLVESGGGLVQAGGSLRLSCAASGRTFARYAMGWYRQAPGKEREFVAGINWSGGGTYYADSVKGRFTISRDNAKNTVYLQMNSLKPEDTAVYYCASYTSVRPKLDYWGLGTQVTVSS",
    "polyreactivity (PSR sort gate)": "high polyreactivity"
  },
  {
    "residue.sequence": "QVQLVESGGGLVQAGGSLRLSCAASGSIFGPYAMGWYRQAPGKERELVAAITIGGDNTYYADSVKGRFTISRDNAKNTVYLQMNSLKPEDTAVYYCAAKYYCGKPHYYEYYYWGQGTQVTVSS",
    "polyreactivity (PSR sort gate)": "low polyreactivity"
  },
  {
    "residue.sequence": "QVQLVESGGGLVQAGGSLRLSCAASGSIFSPNAMGWYRQAPGKERELVATISFSGGRTYYADSVKGRFTISRDNAKNTVYLQMNSLKPEDTAVYYCAKAYYYTDMDYWGQGTQVTVSS",
    "polyreactivity (PSR sort gate)": "low polyreactivity"
  }
]

* * *

- assay.overview: yeast display, Sf9 membrane polyspecificity reagent, FACS + sequencing; frameworks hold sequencing errors

[
  {
    "residue.sequence": "QVQLVESRGGLVQAGGSLRLSCAASGFTFDNYGMGWYSQAPGKERELVAAISKSGTSTYYADSGKGRFTITRDNAKNTVYLQMNSLNPEDTAVYYCSGALPGYGDYYYWGQGTQVTVSS",
    "polyreactivity (PSR sort gate)": "high polyreactivity"
  },
  {
    "residue.sequence": "QVQLVESGGGLVQAGCSLRLSCAASRYIFYFYAMGWYRQAPGKERELVAAINSGGTTNYADSVKGRFTISRDNAKNTVYLQMNSLKAEDTAVYYCAARLLIRYYYWGQGTQVTVSS",
    "polyreactivity (PSR sort gate)": "high polyreactivity"
  },
  {
    "residue.sequence": "QVQLVESGGGLVQAGGSLRLSCAASGIIFTKYVMGWYRQAPGKERELVAAINTDGGSTRYADSVKGRFTISRDNAKNTVYLQMNSLIPEDTAVYYCNTVWFYGAKYDYWGQGTQVTVSS",
    "polyreactivity (PSR sort gate)": "high polyreactivity"
  },
  {
    "residue.sequence": "QVQLEESGGCLDQAAGSLRLTCADSGFIFLPNAMGWYRQAPGKERELVADITYDGGTTYYADSVKGRFTISRDNAKNTVYLQKNSLKPEDTAVYYCNAETYEFHRSRGDYDYWGQGTQVTVSS",
    "polyreactivity (PSR sort gate)": "low polyreactivity"
  },
  {
    "residue.sequence": "QVQLVESGGGLVQAGGSLRLSCAASGLIFTYYAMGWYRQAPGKEREMVAAISSSGVNTYYADSVKGRFTISRDNAKNTVYLQMNSLKPEYTAVYYCAAELQPSPVGGIIQYGFDYWGQGTQVTVSS",
    "polyreactivity (PSR sort gate)": "low polyreactivity"
  }
]

* * *

- assay.overview: yeast display, Sf9 membrane polyspecificity reagent, FACS + sequencing; frameworks hold sequencing errors
measured.property: polyreactivity (PSR sort gate)

[
  {
    "residue.sequence": "QVQLVESGGGLVQAGGSLRLSWAASGNTFNNNPMGWYRQAPGKERELVAAISGSGGSTYYADSVKGRFTISRDNAKNTVYLQLNSLKPEDTAGYYCAVRLVHGGKRYVYWGQGTQVTVSS",
    "reported.measurement": "high polyreactivity"
  },
  {
    "residue.sequence": "QVQLVESGGGLVQAGGSLRLSCAASGTIFTTYAIGWYRQEPGKERELVSAISGRGSDTYYADSVKGRFTISRDNAMNTVYLQMNSLKPEDTAVYYCNARRSRAYHGRSFEYWGQGTQVTLSS",
    "reported.measurement": "low polyreactivity"
  },
  {
    "residue.sequence": "QVQIVESGGGLVQAGGSLRLSCAASGRTFRYYTMGWYIQAPGKERELVAVISRSGGSTYYADSVKGRFTISRDNAKNTVYLQMNSLKPEDTAVYYCNAGYWRFIDSYDYWGPGTQVTVSS",
    "reported.measurement": "high polyreactivity"
  },
  {
    "residue.sequence": "QVQLVESGGGLVQAGGSLRLSCAASGSTFKWYAMGWYRQAPGKERELVAGISWTGASTYYADSVKGRFTISRDNAKNTVYLQMNSLKPDDTAVYYCAADRTYFALLWTGRARYDYWGQGTQVTVSS",
    "reported.measurement": "high polyreactivity"
  },
  {
    "residue.sequence": "QVQLVETGGGLVQAGGSLRLSCAASGSIFTYYTMGWYRQAPGKERELVAAINGRGHSTYYADSVKGRFTISRDNAKNTVYLHMNSLKPEDTAVYYCARRRQYEYNYWGQGTQVTVSS",
    "reported.measurement": "high polyreactivity"
  },
  {
    "residue.sequence": "QVQLGDSGGGLVHAGGSLSLSCAASGSTFAYYSMGWYRQAPGKERELVAGFTWTGGSTYYADSVKGRFTISRDNAKNTVYFQKNSLKPEDTAVYFCAVTYPYGYEYDHWGQGSQVTVSS",
    "reported.measurement": "low polyreactivity"
  },
  {
    "residue.sequence": "QVQLVESGGGLVQAGGSLRISCAASGFIIFEYDMGWYRQAPGKERDFVAAINFSGGSTYYADSEKGRFTISRDNAKNTVYLQMNSLKPEDTAVYYCAADVVRYYYTYDYWGQGTQVTVSS",
    "reported.measurement": "low polyreactivity"
  },
  {
    "residue.sequence": "QVQHVESGGGLVQAGGILRLICDASGGIFAANAMGWYRPAPGQERELVAAITSVGSTYADSVKGRFTISRDNAKNTVYLQMNSLKPEDTAVYYCAADTESVIVWYEDDYWGQGTQVTVSS",
    "reported.measurement": "low polyreactivity"
  },
  {
    "residue.sequence": "QVQLVESGGGLVQAGGSLRLSCAASGLIFGPNAMGWYRQSPGKERELVAAITKSGDSTYYADSVKGRFTISRDNAKNTVYLQMNSLKPEDTAVYYCAADTTTGLYDYWGQGTQVTVSS",
    "reported.measurement": "low polyreactivity"
  },
  {
    "residue.sequence": "HVQLVESGGGLVQAGGILRLSFAASGFIFCYYTMGWYRQATGKERELVAAINSGGSTNYADSVKGRFTISRDNAKNTVYLQMNSLKPEDTAVYYCAALVWYSGELFYYWGQGTQVTVSS",
    "reported.measurement": "low polyreactivity"
  },
  {
    "residue.sequence": "QVQLVESGGGLVQAGGSLRLSCAASGGIFPSYAMGWYRQAPGKERELVAAITRGASTYADSVKGRFTISRDNAKNTVYLQMNSLKPEDTAVYYCAADTKRRSIRYDYWGQGTQVTVSS",
    "reported.measurement": "high polyreactivity"
  }
]
